# viability, T/C per record follows
Test system: 922993-354-T-J3-PDC complex spheroids, viability, % test/control;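 further: spheroids exposed to the agents for 7 days before readout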
Assay: Anticancer human tumor 922993-354-T-J3-PDC patient-derived endometrial carcinoma cell line growth inhibition [CLK]
Conditions: second compound 3.16 µM; first compound 10 µM; stronger effect = lower value

molecule	viability, T/C
CCCS(=O)(=O)Nc1ccc(F)c(C(=O)c2c[nH]c3ncc(-c4ccc(Cl)cc4)cc23)c1F + CNC(=O)c1ccc(Nc2nc(OC3CCCC3)c3c(-c4ccc5nc(C)oc5c4)c[nH]c3n2)c(OC)c1	24%
C=C(F)C(=O)N1CCN(c2nc(OCC3CCCN3C)nc3c2CCN(c2cccc4cccc(Cl)c24)C3)CC1CC#N (stereo not given) + CN1CCN(c2cc(C(=O)Nc3cc4cc(-c5cnn(C)c5)ccc4cn3)ccn2)CC1	1.67%
C#Cc1c(F)ccc2cc(O)cc(-c3ncc4c(N5CC6CCC(C5)N6)nc(OCC56CCCN5CC(F)C6)nc4c3F)c12 (stereo not given) + CNC(=O)c1ccc(Nc2nc(OC3CCCC3)c3c(-c4ccc5nc(C)oc5c4)c[nH]c3n2)c(OC)c1	36.2%
C=C(F)C(=O)N1CCN(c2nc(OCC3CCCN3C)nc3c2CCN(c2cccc4cccc(Cl)c24)C3)CC1CC#N (stereo not given) + CNC(=O)c1ccc(Nc2nc(OC3CCCC3)c3c(-c4ccc5nc(C)oc5c4)c[nH]c3n2)c(OC)c1	4.89%
C=CC(=O)N1CCN(c2nc(=O)n(-c3c(C)ccnc3C(C)C)c3nc(-c4c(O)cccc4F)c(F)cc23)C(C)C1 (stereo not given) + CN1CCN(c2cc(C(=O)Nc3cc4cc(-c5cnn(C)c5)ccc4cn3)ccn2)CC1	1.14%
Nc1ccn(C2OC(CO)C(O)C2(F)F)c(=O)n1 (stereo not given) + CNC(=O)c1ccc(Nc2nc(OC3CCCC3)c3c(-c4ccc5nc(C)oc5c4)c[nH]c3n2)c(OC)c1	13.1%
O=C(c1cc(Cc2n[nH]c(=O)c3ccccc23)ccc1F)N1CCN(C(=O)C2CC2)CC1 + CNC(=O)c1ccc(Nc2nc(OC3CCCC3)c3c(-c4ccc5nc(C)oc5c4)c[nH]c3n2)c(OC)c1	33.5%
CC1COCCN1c1cc(C2(S(C)(=N)=O)CC2)nc(-c2ccnc3[nH]ccc23)n1 (stereo not given) + CNC(=O)c1ccc(Nc2nc(OC3CCCC3)c3c(-c4ccc5nc(C)oc5c4)c[nH]c3n2)c(OC)c1	9.92%
O=c1[nH]cc(F)c(=O)[nH]1 + CN1CCN(c2cc(C(=O)Nc3cc4cc(-c5cnn(C)c5)ccc4cn3)ccn2)CC1	2.29%
C=CC(=O)N1CCN(c2nc(=O)n(-c3c(C)ccnc3C(C)C)c3nc(-c4c(O)cccc4F)c(F)cc23)C(C)C1 (stereo not given) + CNC(=O)c1ccc(Nc2nc(OC3CCCC3)c3c(-c4ccc5nc(C)oc5c4)c[nH]c3n2)c(OC)c1	38.1%
